# test-system: variant enzyme L91K of undecaprenyl diphosphate synthase (Micrococcus luteus, UniProt O82827, L91K)
# Construct: made in house; host or cells: E. coli; site-directed mutagenesis of pET22b/MLU-UPS
# experimental-details: Relative activity of variant enzyme L91K on initiating substrates
# Assay type: biochemical, Micrococcus luteus B-P 26
# condition-label: index, activity of wild-type enzyme on same initiating substrate as 100; 12.5 μM initiating substrate, 1 hour, 37° C.
measured-endpoint: Relative activity

>>> measurement("CCCCC(OC)/C(C)=C/CC/C(C)=C/COP(=O)(O)OP(=O)(O)O (stereo not shown) [Compound of formula (B)]")
156
>>> measurement("CC[C@H](O)CC/C(C)=C/CC/C(C)=C/COP(=O)(O)OP(=O)(O)O [Compound of formula (D)]")
101
>>> measurement("CCCSC/C(C)=C/CC/C(C)=C/COP(=O)(O)OP(=O)(O)O [Compound of formula (M)]")
112
>>> measurement("CC[C@@H](O)CC/C(C)=C/CC/C(C)=C/COP(=O)(O)OP(=O)(O)O [Compound of formula (E)]")
163
>>> measurement("CCC(O)CC/C(C)=C/CC/C(C)=C/COP(=O)(O)OP(=O)(O)O [Compound of formula (R)]")
165
>>> measurement("CCC(CC/C(C)=C/CC/C(C)=C/COP(=O)(O)OP(=O)(O)O)C(C)=O [Compound of formula (S)]")
147
>>> measurement("CCCCC(O)/C(C)=C/CC/C(C)=C/COP(=O)(O)OP(=O)(O)O (stereo not shown) [Compound of formula (C)]")
130
